Hey, just so you know, these numbers are from the RNAGym collection of RNA variant scans (doi:10.1002/anie.201605470).

B1: Osa-1-4 twister ribozyme (parent)
chain: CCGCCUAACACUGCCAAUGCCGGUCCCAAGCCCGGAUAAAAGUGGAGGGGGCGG

Variants of: B1
Assay: self-cleavage, relative activity (ratio to wild type); higher = more cleavage; co-transcriptional
This section presents variants with their documented self-cleavage values.
Observed property: self-cleavage

INSERT INTO measurements (biosequence, observed_property, reported_result) VALUES
  ('CCGCCUAACACUGCCAAUGCCGGUCCCAAGCCCGGAUAAAAGUGGAUGGGGAGG', 'self-cleavage', 0.21),
  ('CCGCCUGACACUGCCAAUGCAGGUCCCAAGCCCGGAUAAAAGUGGAGGGGGCGG', 'self-cleavage', 0.1),
  ('CCGCCUAACACUGCCAAUGCCGGUCCGAAGCCCGGGUAAAAGUGGAGGGGGCGG', 'self-cleavage', 0.13),
  ('CCGCCUGACGCUGCCAAUGCCGGUCCCAAGCCCGGAUAAAAGUGGAGGGGGCGG', 'self-cleavage', 0.39),
  ('CCGCCUAACACUGCCAGUGCCGGUCCCAAGCCCGGAUAAAAGUGGACGGGGCGG', 'self-cleavage', 0.17),
  ('CCGCCUAACACUGCCAAUGCCGGUCCCAAGCCCGUAUAAAAGUGGAGGGGGAGG', 'self-cleavage', 0.81),
  ('CCGCCUAACACUGCCAAGGCCGGUCCCAAGCCCGGAUAAGAGUGGAGGGGGCGG', 'self-cleavage', 0.76),
  ('CCGCCUAAUACUGCCAAUGCCGGUCCCAAGCCCGGAAAAAAGUGGAGGGGGCGG', 'self-cleavage', 0.4),
  ('CCGCCUAACACUGCCAAUGCCGGUCCCAAGCCUGGAUAAAAGUGGAGGGGGCGG', 'self-cleavage', 0.88),
  ('CCGCCUAACACUGCCAAUGCCGGUCCCAAGGCCGGAUAAAAGUGGACGGGGCGG', 'self-cleavage', 0.03),
  ('CCGCCUAACGCUGCCCAUGCCGGUCCCAAGCCCGGAUAAAAGUGGAGGGGGCGG', 'self-cleavage', 0.27),
  ('CCGCCUAACACUCCCAAUGCCGGUCCCAAGCCCGGAUAAACGUGGAGGGGGCGG', 'self-cleavage', 0.02),
  ('CCGCCUAACACUACCAAUGCCGGUCCCAAGCCCGGAUAAAAGUGGAGGGGGAGG', 'self-cleavage', 0.08),
  ('CCGCCUAACCCUGCCAAUGCCGGUCCCAUGCCCGGAUAAAAGUGGAGGGGGCGG', 'self-cleavage', 0.02),
  ('CCGCCUAACACUGCCAAUGCCGGUCCCAGGCCCGGAUAGAAGUGGAGGGGGCGG', 'self-cleavage', 0.09),
  ('CCGCCUUACACUGCCAAUGCCGGUCCCAAGCCCUGAUAAAAGUGGAGGGGGCGG', 'self-cleavage', 0.07),
  ('CCGCCUAACCCUGCCAAUGCCGGUCCCAAGCCCGGGUAAAAGUGGAGGGGGCGG', 'self-cleavage', 0.11),
  ('CCGCCUAACACGGCCAAUGCCGGUCCCAAGCCCGGAUAAAAGUGAAGGGGGCGG', 'self-cleavage', 0.07),
  ('CCGCCUAACACUGCCAAUGCCGGUCCCAAGUCCGGAUAAAAGUGGAGGGAGCGG', 'self-cleavage', 0.64),
  ('CCGCCUAAUACUGCCAUUGCCGGUCCCAAGCCCGGAUAAAAGUGGAGGGGGCGG', 'self-cleavage', 0.81),
  ('CCGCCUAACACUGCCAAUGCCGGUCCCAAGCCCGGGUAAAAGUGGAGCGGGCGG', 'self-cleavage', 0.15),
  ('CCGCCUAACACUGCCAAUGACGGUCCCAAGCCCGGAUAAAAGUGGAUGGGGCGG', 'self-cleavage', 0.32),
  ('CCGCCUAACACUGCCAAUGCCGAUCCCAACCCCGGAUAAAAGUGGAGGGGGCGG', 'self-cleavage', 0.04),
  ('CCGCCUAACCCUGCCAAUGCCGGUCCGAAGCCCGGAUAAAAGUGGAGGGGGCGG', 'self-cleavage', 0.02),
  ('CCGCCUAAAACUGCCAAUGCCGGUCCCAAGCCCGGAUAAAAGAGGAGGGGGCGG', 'self-cleavage', 0.37),
  ('CCGCCUAACACUGCCAAUGCCGGUCCCAAGCCCGGAUAAAAGUGGAGUGCGCGG', 'self-cleavage', 0.07),
  ('CCGCCUAACACUGCCGAUGCCGGUCCCAAGCCCGGAUAAAACUGGAGGGGGCGG', 'self-cleavage', 0.62),
  ('CCGCCUAACACUGCCAAUGCCGGUCCCAAGCCCGGAUAAAAGUGGAGGCGGCGG', 'self-cleavage', 0.07),
  ('CCGCCUAACACAGCCAAUGCCGGUACCAAGCCCGGAUAAAAGUGGAGGGGGCGG', 'self-cleavage', 0.06),
  ('CCGCCUAACACUGCCAACGCCGGUCGCAAGCCCGGAUAAAAGUGGAGGGGGCGG', 'self-cleavage', 0.1),
  ('CCGCCUAACACUACCAAUGCCGGUCCCAAGCCCGGAUAAAAGUGGAGGGGGCGU', 'self-cleavage', 0.2),
  ('CCGCCUAUCACUGCCAAUGCCGGUCCCAAGCCCGGAUAAAAGUGGAGGGGGCGC', 'self-cleavage', 0.13),
  ('CCGCCUCACACUGCCAAUGCCGGUCCCAAGCCCGGAUAAAAGCGGAGGGGGCGG', 'self-cleavage', 0.04),
  ('CCGCCUAACACUGCCAAGGCCGGUCCCAAGCCCGGAUAUAAGUGGAGGGGGCGG', 'self-cleavage', 0.88),
  ('CCGCCUAACACUGCCAAAGCCGGUCCCAAGCCCGGAUACAAGUGGAGGGGGCGG', 'self-cleavage', 0.93),
  ('CCGCCUAACACUGCCAAUGCCGGUGCCAAGCCCGGAUAAAAGUGGAGGGCGCGG', 'self-cleavage', 0.09),
  ('CCGCCUAACACUGCCAAUGCCGGUCCCAGGCCCGGAUAAAAGUGGAGGUGGCGG', 'self-cleavage', 0.04),
  ('CCGCCUAACACUGCCAAUGCCUGUCCCAAGCCCGGAUAAAAGUGGAGGGGGCGG', 'self-cleavage', 0.93),
  ('CCGCCUAACACUGCCAAUGCCGGUCUCAACCCCGGAUAAAAGUGGAGGGGGCGG', 'self-cleavage', 0.04),
  ('CCGCCUAACACUGCCAAUGCCGGUCCCCAGCCCGGAUAAAUGUGGAGGGGGCGG', 'self-cleavage', 0.98),
  ('CCGCCUAUCACUGCCAAUGCUGGUCCCAAGCCCGGAUAAAAGUGGAGGGGGCGG', 'self-cleavage', 0.28),
  ('CCGCCUAACACUACCAAUGCCGGUCCCAAGCCCGGAUAAAAGUGGAGAGGGCGG', 'self-cleavage', 0.03),
  ('CCGCCUAACAUUGACAAUGCCGGUCCCAAGCCCGGAUAAAAGUGGAGGGGGCGG', 'self-cleavage', 0.07),
  ('CCGCCUAGCACUGCCAAUGCCGGUCCCAAGCCAGGAUAAAAGUGGAGGGGGCGG', 'self-cleavage', 0.1),
  ('CCGCCUAACACUGCCAAUGCCGGUCCUAAGCCCGGAUAAAAGCGGAGGGGGCGG', 'self-cleavage', 0.1),
  ('CCGCCUAACACUGCCAUUGCCGGUCCCAAGCCCGGAUAAAAGUAGAGGGGGCGG', 'self-cleavage', 1),
  ('CCGCCUAACACUGCCAAUGGCGGUCCCAAGCCGGGAUAAAAGUGGAGGGGGCGG', 'self-cleavage', 0.05),
  ('CCGCCUACCACUGCCAAUGCCGGUCCCAAUCCCGGAUAAAAGUGGAGGGGGCGG', 'self-cleavage', 0.01),
  ('CCGCCUAACACUGCCAGUGCCGGUCCCAAGCCCGGAUAAAAGUGGAGGGAGCGG', 'self-cleavage', 0.51),
  ('CCGCCUAACACUGCCAAUGCCGGUCCCAAGCCCGGAUAAAAGUGCAGCGGGCGG', 'self-cleavage', 0.04),
  ('CCGCCUAACACUCCCAAUGCCGGUCCCAAGCCCGGAUAAAUGUGGAGGGGGCGG', 'self-cleavage', 0.03),
  ('CCGCCUAACACUGCCAAUGCCGGUCCUAAGCCCGGAUAAAAGUGGACGGGGCGG', 'self-cleavage', 0.42),
  ('CCGCCUAACACUGCCAAUGCCGGACGCAAGCCCGGAUAAAAGUGGAGGGGGCGG', 'self-cleavage', 0.04),
  ('CCGCCUAACACUGCCUAUGCCGGUCCCAAGCCCGGAUAAAAGUAGAGGGGGCGG', 'self-cleavage', 0.94),
  ('CCGCCUAACACUGCCAUAGCCGGUCCCAAGCCCGGAUAAAAGUGGAGGGGGCGG', 'self-cleavage', 0.89),
  ('CCGCCUAUCACUGCCAAUGACGGUCCCAAGCCCGGAUAAAAGUGGAGGGGGCGG', 'self-cleavage', 0.48),
  ('CCGCCUAACACUGCCAAUGCCGGUCCCAAGCCCGCCUAAAAGUGGAGGGGGCGG', 'self-cleavage', 0.75),
  ('CCGCCUAACACUGCCCAUGCCGGUCCCAAGCCCGGAUAAAAGUGGAGGGGGUGG', 'self-cleavage', 0.98),
  ('CCGCCUAACACUGCCAAUGCCGGCCCCAAGCCCGGAUACAAGUGGAGGGGGCGG', 'self-cleavage', 0.06),
  ('CCGCCUAACACUGCCAAUGACGGUCCCAAGCCCAGAUAAAAGUGGAGGGGGCGG', 'self-cleavage', 0.84),
  ('CCGCCUAACACUGCCAAUGCAGGUCCCUAGCCCGGAUAAAAGUGGAGGGGGCGG', 'self-cleavage', 0.16),
  ('CCGCCUAACACUGCCAAUGCCGGUCCCAAGCCCGGAAAAAAGUGGUGGGGGCGG', 'self-cleavage', 0.05),
  ('CCGCCUAACACUGCCAAUGCCGGUCCCAUGCCCGGAUAAAAGUGGAUGGGGCGG', 'self-cleavage', 0.03),
  ('CCGCCUAACACUGCCAAUGCCGGACCCAAGCCCGGAUAAAAGUGGAGGGGGUGG', 'self-cleavage', 0.33),
  ('CCGCCUAACACUGCCAAUUCCGGUCCCAAGCCCGUAUAAAAGUGGAGGGGGCGG', 'self-cleavage', 0.76),
  ('CCGCCUAACACUGCCAAUGCCGGUCCCAAGCCCGGAUAAAAGUGGAGGGGUUGG', 'self-cleavage', 0.54),
  ('CCGCCUAAUACUGCCAAUCCCGGUCCCAAGCCCGGAUAAAAGUGGAGGGGGCGG', 'self-cleavage', 0.05),
  ('CCGCCUAACACUGCCACUGCCGGUCCCAAGCCCGGAUAAAAGUGGAGGAGGCGG', 'self-cleavage', 0.05),
  ('CCGCCUAACACUGCCAGUGCCGGUCCCAAGCGCGGAUAAAAGUGGAGGGGGCGG', 'self-cleavage', 0.15),
  ('CCGCCUAACACUGCCAAUGCCGGUCCCAUGCCCGGAUAAAAGUGGAGGGGACGG', 'self-cleavage', 0.06),
  ('CCGCCUAACACUGCCAAUAACGGUCCCAAGCCCGGAUAAAAGUGGAGGGGGCGG', 'self-cleavage', 0.86),
  ('CCGCCUAACACUGCCAAUGCCGGUCCCAAGCCCGGAACAAAGUGGAGGGGGCGG', 'self-cleavage', 1.05),
  ('CCGCCUAACACUGCCAAUGCUGGUCCCAAGCCCGGAAAAAAGUGGAGGGGGCGG', 'self-cleavage', 1.07),
  ('CCGCCUAACACUGCCAAUGCCGGUCCCAAGCCCGGAUAAAAGUAGACGGGGCGG', 'self-cleavage', 0.09),
  ('CCGCCUAACACUGCCAUUGCCGGUCCCAAGCCCGGAUAAAAGUGGAGGGGCCGG', 'self-cleavage', 0.19),
  ('CCGCCUAACAGUGCCAAUGCCCGUCCCAAGCCCGGAUAAAAGUGGAGGGGGCGG', 'self-cleavage', 0.04),
  ('CCGCCUAACAUUGCCAAUGCCGGUCACAAGCCCGGAUAAAAGUGGAGGGGGCGG', 'self-cleavage', 0.05),
  ('CCGCCUAACACUGCCAAUGCCGGUCCCAAGCACGGAUAAAGGUGGAGGGGGCGG', 'self-cleavage', 0.06),
  ('CCGCCUAACACUGCCAAUGCCGGUCCCAAGCCCGGAUGAAAGUGGGGGGGGCGG', 'self-cleavage', 0.08),
  ('CCGCCUAACACUGCCAAUGCCGGUCCCAAGCCCGGAUAAAAGUGGGGGGGGCCG', 'self-cleavage', 0.03),
  ('CCGCCUAACACUGCCAAUGCCGGGCCCGAGCCCGGAUAAAAGUGGAGGGGGCGG', 'self-cleavage', 0.02),
  ('CCGCCUAACACUGCCAAUGCCGGUCCCAAGCCCGGAUAGAAGUGGAGGGGGAGG', 'self-cleavage', 0.97),
  ('CCGCCUAAUACUGCCAAUGCCGGUCCCAAGCCCGGAUAAAAGUGGAGGUGGCGG', 'self-cleavage', 0.05),
  ('CCGCCUAACACUGCCAAUGCCGCUACCAAGCCCGGAUAAAAGUGGAGGGGGCGG', 'self-cleavage', 0.02),
  ('CCGCCUAACACUGCCCAUGCCGGUCCCAAGACCGGAUAAAAGUGGAGGGGGCGG', 'self-cleavage', 0.04),
  ('CCGCCUAACACUGCCAAUGCCGGUCCCAAGCCCGGAUAAAAGGGGAGGGUGCGG', 'self-cleavage', 0.71),
  ('CCGCCUAACACGGCCAAUGCCGGUCCCAAGCCCGGAUAAAAGUGGAGGGGGCGU', 'self-cleavage', 0.4),
  ('CCGCCUAACACUGCCAAUGCCGGUCCCAAGCACGGAUAAAAGUGGAGGGGGCCG', 'self-cleavage', 0.02),
  ('CCGCCUAACAAUGCCAAUGCCGGUCCCAAUCCCGGAUAAAAGUGGAGGGGGCGG', 'self-cleavage', 0.03),
  ('CCGCCUAACACUGCUAAUGCCGGUCCCAAGCGCGGAUAAAAGUGGAGGGGGCGG', 'self-cleavage', 0.08),
  ('CCGCCUAAUACUGCCAAUGCCGGUCCCAAGCCCGGAUAAAAGUGGAGGCGGCGG', 'self-cleavage', 0.04);
